# System: Calu-3
# experimental_protocol: drug sensitivity score (DSS) for viability; higher = more toxic; extreme values may be limits of the assay
# study_conditions: 72 h
metric: drug sensitivity score
Enter the number alone.

# annotated cases, reported drug sensitivity score shown
compound	endpoint_result
CN(Cc1ccccc1)C(=O)[C@H](Cc1ccc2ccccc2c1)NC(=O)[C@@H]1C[C@@H](O)CN1C(=O)c1cn(C)c2ccccc12	0.6
C[C@H](NC(=O)CNC(=O)c1cccc(Cl)c1)c1ccccc1	0
Nc1nc(=O)n([C@H]2C[C@H](O)[C@@H](CO)O2)cc1F	3.4
CC1=C(CC(=O)O)c2cc(F)ccc2/C1=C\c1ccc([S+](C)[O-])cc1 (centres undefined)	0

Q: Fill: drug sensitivity score (Calu-3) for this compound CC1(C)[C@@H]2C[C@@H](O)[C@@](C)(O)[C@H]1C2 [2,3-cis/exo-pinanediol]
A: 0

Q: Fill: drug sensitivity score (Calu-3) for this compound `CC(=O)SC[C@@H](C)C(=O)N1CCC[C@H]1C(=O)N[C@@H](Cc1ccccc1)C(=O)O`
A: 0

Q: Fill: drug sensitivity score (Calu-3) for this compound COCCc1ccc(OCC(O)CNC(C)C)cc1 (centres undefined)
A: 0

Q: Fill: drug sensitivity score (Calu-3) for this compound `NC(N)=Nc1nc(CSCC/C(N)=N/S(N)(=O)=O)cs1`
A: 0

Q: Fill: drug sensitivity score (Calu-3) for this compound `CN/C(=N\CCSCc1nc[nH]c1C)NC#N`
A: 0
